Consider the following molecules; for each one, report its activation at 10 µM.
- system.name: NMDA receptor (GRIN1/GRIN2A) (Homo sapiens, UniProt Q05586+Q12879)
- Sequence (Q12879 23-1464, other chains not shown): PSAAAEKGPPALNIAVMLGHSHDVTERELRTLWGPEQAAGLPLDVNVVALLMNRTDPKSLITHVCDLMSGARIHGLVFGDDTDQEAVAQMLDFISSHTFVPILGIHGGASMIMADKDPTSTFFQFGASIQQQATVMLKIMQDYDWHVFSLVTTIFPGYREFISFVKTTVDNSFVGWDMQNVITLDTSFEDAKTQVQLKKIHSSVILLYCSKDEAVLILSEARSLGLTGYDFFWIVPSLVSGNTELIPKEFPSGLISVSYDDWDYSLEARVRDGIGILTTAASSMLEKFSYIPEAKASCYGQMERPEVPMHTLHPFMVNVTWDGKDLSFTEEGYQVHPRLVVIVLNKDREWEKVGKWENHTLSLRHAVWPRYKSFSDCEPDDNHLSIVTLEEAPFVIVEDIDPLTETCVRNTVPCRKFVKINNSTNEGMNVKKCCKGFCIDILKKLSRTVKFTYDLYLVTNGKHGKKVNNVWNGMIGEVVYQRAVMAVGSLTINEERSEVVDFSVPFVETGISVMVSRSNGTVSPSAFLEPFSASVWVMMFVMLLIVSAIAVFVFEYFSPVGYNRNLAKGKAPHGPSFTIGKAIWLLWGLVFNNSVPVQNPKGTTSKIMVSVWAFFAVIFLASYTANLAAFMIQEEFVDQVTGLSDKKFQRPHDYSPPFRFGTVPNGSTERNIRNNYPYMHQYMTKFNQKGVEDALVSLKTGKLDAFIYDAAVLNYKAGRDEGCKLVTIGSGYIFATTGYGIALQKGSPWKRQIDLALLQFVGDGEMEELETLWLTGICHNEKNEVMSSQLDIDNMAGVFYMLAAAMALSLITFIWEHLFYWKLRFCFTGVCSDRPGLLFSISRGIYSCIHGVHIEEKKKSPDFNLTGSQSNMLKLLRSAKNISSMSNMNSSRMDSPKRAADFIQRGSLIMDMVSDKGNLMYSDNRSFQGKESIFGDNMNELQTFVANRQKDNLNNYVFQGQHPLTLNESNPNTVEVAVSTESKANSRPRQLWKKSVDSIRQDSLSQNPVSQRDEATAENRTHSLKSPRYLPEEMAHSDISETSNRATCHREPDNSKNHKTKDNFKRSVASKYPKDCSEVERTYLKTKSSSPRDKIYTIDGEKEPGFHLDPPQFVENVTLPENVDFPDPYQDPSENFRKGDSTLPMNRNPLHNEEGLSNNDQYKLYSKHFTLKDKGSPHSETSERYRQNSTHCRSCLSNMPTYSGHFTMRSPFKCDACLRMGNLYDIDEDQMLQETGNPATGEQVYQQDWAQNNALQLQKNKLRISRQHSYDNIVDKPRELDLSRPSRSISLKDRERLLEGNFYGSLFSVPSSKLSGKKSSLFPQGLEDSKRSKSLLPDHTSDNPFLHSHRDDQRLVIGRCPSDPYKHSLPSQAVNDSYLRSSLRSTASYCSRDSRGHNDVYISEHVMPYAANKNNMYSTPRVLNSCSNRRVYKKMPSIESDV
- test.details: NMDA potentiation, two electrode voltage clamp (TEVC) of Xenopus oocytes expressing NMDA receptor
- Assay type: cell-based
- details: 10 μM compound, 3 μM Glutamate and Glycine

So what's the measured activation at 10 µM for this one? CCCC[C@](C)(O)CC[C@@H](C)[C@H]1CC[C@H]2[C@@H]3CC=C4C[C@@](C)(O)CC[C@]4(C)[C@H]3CC[C@]12C [Compound 7-4]
50 to 100%

Same read-out for C[C@H](CC[C@](C)(O)CCO)[C@H]1CC[C@H]2[C@@H]3CC=C4C[C@@](C)(O)CC[C@]4(C)[C@H]3CC[C@]12C [Compound 10-21] ?
10 to 50%

Same read-out for C[C@H](CCC(C)(O)C(F)(F)F)[C@H]1CC[C@H]2[C@@H]3CC=C4C[C@@](C)(O)CC[C@]4(C)[C@H]3CC[C@]12C (some centres unmarked) [Compound 3-2] ?
> 100%

Same read-out for CCCC[C@](C)(O)CC[C@@H](C)[C@H]1CC[C@H]2[C@@H]3CC[C@H]4C[C@@](C)(O)CC[C@]4(C)[C@H]3CC[C@]12C [Compound 7-6] ?
> 100%

Same read-out for C=CC(C)(O)CC[C@@H](C)[C@H]1CC[C@H]2[C@@H]3CC[C@H]4C[C@@](C)(O)CC[C@]4(C)[C@H]3CC[C@]12C (some centres unmarked) [Compound 10-7] ?
50 to 100%
